Target: Ubiquitin carboxyl-terminal hydrolase 1/WD repeat-containing protein 48 (Homo sapiens, UniProt O94782+Q8TAF3)
Sequence (O94782 whole entry): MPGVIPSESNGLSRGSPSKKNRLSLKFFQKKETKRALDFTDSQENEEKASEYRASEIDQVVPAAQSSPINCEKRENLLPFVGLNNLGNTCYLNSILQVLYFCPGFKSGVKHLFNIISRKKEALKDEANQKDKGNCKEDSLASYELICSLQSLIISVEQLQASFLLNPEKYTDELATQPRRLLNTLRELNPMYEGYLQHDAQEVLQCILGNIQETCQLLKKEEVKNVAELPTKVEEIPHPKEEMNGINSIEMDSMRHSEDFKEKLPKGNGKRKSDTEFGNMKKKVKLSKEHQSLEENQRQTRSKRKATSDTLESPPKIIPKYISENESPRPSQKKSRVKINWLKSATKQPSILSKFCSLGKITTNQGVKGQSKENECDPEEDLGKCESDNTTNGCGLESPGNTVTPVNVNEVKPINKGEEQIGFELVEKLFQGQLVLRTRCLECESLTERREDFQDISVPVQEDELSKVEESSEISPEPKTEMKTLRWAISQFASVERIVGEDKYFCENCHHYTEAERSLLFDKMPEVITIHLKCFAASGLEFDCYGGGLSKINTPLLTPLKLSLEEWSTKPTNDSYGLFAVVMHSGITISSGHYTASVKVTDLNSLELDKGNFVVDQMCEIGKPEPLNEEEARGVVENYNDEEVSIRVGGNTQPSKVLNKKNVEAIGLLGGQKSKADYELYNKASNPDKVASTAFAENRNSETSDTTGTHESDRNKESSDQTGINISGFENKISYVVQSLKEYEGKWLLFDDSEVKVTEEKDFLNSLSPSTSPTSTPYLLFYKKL
Sequence (Q8TAF3 whole entry): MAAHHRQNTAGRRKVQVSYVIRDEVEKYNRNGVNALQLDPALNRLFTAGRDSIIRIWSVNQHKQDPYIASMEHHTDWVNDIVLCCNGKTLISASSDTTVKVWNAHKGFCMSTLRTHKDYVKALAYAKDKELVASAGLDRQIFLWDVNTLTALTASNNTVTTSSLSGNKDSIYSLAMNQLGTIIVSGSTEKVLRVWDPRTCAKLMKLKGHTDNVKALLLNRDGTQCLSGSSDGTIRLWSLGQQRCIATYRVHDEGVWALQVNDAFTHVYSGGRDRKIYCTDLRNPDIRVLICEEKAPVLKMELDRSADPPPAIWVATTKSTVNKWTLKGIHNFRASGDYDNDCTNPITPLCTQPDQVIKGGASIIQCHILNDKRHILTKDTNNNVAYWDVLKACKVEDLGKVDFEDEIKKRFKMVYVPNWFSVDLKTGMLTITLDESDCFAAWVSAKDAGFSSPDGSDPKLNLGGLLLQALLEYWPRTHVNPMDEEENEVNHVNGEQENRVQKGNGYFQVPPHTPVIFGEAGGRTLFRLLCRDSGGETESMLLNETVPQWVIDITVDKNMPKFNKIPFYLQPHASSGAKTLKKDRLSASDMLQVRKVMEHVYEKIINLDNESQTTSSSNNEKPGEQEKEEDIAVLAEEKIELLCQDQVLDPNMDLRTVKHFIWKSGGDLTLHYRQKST
Experiment: In Vitro USP1  Inhibitory Activity
pIC50: −log10 of the molar value.
Mark t for reported pIC50 of 8 or greater; mark f for anything smaller.

**Query** Does pIC50 meet or surpass 8 for COc1cc(-n2nc(C(F)(F)F)cc2C)ccc1CNc1nc(-c2c(OC)ncnc2C2CC2)ncc1OC [US20250289799, Example 102] ?
**Result** t

**Query** Please do the same for COc1cnc(-c2ccccc2C(C)C)nc1NCc1ccc(-c2nc(C(F)(F)F)cn2C)cc1 [US20250289799, Example 4] as well.
**Result** t

**Query** What do you have for COc1ncnc(C2CC2)c1-c1ncc(CO)c(NCc2ccc(-c3nc(C(F)(F)F)cn3C(C)C)cc2)n1 [US20250289799, Example 137] ?
**Result** f

**Query** Same again, this time with C#CCN(Cc1ccc(-c2nc(C(F)(F)F)cn2C)cc1)c1nc(-c2c(OC)ncnc2C2CC2)ncc1OC [US20250289799, Example 139]
**Result** t

**Query** Moving on to COc1cnc(-c2ccccc2C(C)C)nc1NCc1ccc(-c2nccn3ccnc23)cc1 [US20250289799, Example 11]
**Result** f

**Query** Now consider COc1cnn(C(C)C)c1-c1nc(NCc2ccc(-c3ccccn3)cc2)c2occc2n1 [US20250289799, Example 181] and answer again.
**Result** f

**Query** Further, for COc1cnc(-c2cccnc2C(C)C)nc1NCc1ccc(-n2nc(C(F)(F)F)cc2C)cc1 [US20250289799, Example 158] ?
**Result** t

**Query** Now try COc1cnc(-c2c(Cl)cnn2C(C)C)nc1NCc1ccc(-c2ccccn2)cc1 [US20250289799, Example 162] .
**Result** t

**Query** Please do the same for CC(C)c1ccccc1-c1nc(NCc2ccc3c(c2)CCN(C)C3=O)c2occc2n1 [US20250289799, Example 77] as well.
**Result** f

**Query** Ok, now COc1cnc(-c2cncnc2C2CC2)nc1NCc1ccc(-c2nc(C(F)(F)F)cn2C)cc1 [US20250289799, Example 194]
**Result** f

**Query** Check CC(C)c1ccccc1-c1nc(NCc2ccc(-c3ccccn3)cc2)c2[nH]ccc2n1 [US20250289799, Example 36] too.
**Result** f

**Query** Param item: COc1cnc(-c2c(OC)cnn2C2CC2)nc1NCC1CCN(c2nc(C(F)(F)F)cn2C)CC1 [US20250289799, Example 184]
**Result** f

**Query** Next record, please: COc1cnc(-c2cccc3c2N(C)CC3)nc1NCc1ccc(-c2nc(C(F)(F)F)cn2C)cc1 [US20250289799, Example 145]
**Result** f

**Query** Moving on to COc1cnc(-c2c(OC)cnn2C(C)C)nc1N(C)CC1CCN(c2ccccn2)CC1 [US20250289799, Example 177]
**Result** f

**Query** Likewise for COc1cnc(-c2c(Cl)cnn2C(C)C)nc1NCC1CCN(c2nc(C(F)(F)F)cn2C)CC1 [US20250289799, Example 163] ?
**Result** t

**Query** What do you have for COc1cnc(-c2c(OC)ncnc2C2CC2)nc1N(C)CC1CCN(c2nc(C(F)(F)F)cn2C)CC1 [US20250289799, Example 92] ?
**Result** t

**Query** Could you do the same for Cn1cc(C(F)F)nc1-c1ccc(CNc2nc(-c3cncnc3C3CC3)nc3ccoc23)cc1 [US20250289799, Example 197] , please?
**Result** f

**Query** Continue with COc1ncnc(C2CC2)c1-c1ncc(OC(C)C)c(N(C)Cc2ccc(-c3nc(C(F)(F)F)cn3C)cc2)n1 [US20250289799, Example 109]
**Result** t

**Query** Entry CCOCCOc1ccc(CNc2nc(-c3ccccc3C(C)C)nc3ccoc23)cc1 [US20250289799, Example 79] please
**Result** t
